- measured_target: chymotrypsin-like (CT-L) proteasome activity (Homo sapiens, UniProt P20618+P28074)
- Sequence (P28074 60-263): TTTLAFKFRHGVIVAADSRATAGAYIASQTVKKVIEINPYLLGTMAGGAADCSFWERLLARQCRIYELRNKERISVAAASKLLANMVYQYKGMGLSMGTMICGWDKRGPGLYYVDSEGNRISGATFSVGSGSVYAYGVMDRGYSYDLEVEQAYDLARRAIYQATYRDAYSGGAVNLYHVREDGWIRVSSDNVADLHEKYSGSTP
- Sequence (P20618 29-241): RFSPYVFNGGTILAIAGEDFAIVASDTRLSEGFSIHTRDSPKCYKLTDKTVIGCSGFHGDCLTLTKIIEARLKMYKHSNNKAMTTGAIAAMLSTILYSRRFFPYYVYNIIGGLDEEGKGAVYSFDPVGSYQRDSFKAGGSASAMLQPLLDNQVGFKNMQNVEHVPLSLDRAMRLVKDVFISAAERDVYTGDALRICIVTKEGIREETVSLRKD
- procedure_details: Proteasome enzymatic activity (tumor cell lysates), CT-L, KMS-11
- Type: biochemical
- condition_parameters: KMS-11, mean ± standard deviation
Below, each of the compounds is paired with its reported IC50 value.
Give the value, in units of nM, as a plain number.

{"smiles_entry": "CC(C)C[C@H](NC(=O)[C@H](COC(F)F)NC(=O)[C@H](COC(F)F)NC(=O)[C@H](CCc1ccccc1)NC(=O)CN1CCOCC1)C(=O)[C@@]1(C)CO1", "IC50 / nM": 33.7}

Provide only the value of recorded IC50 for CC(C)C[C@H](NC(=O)[C@H](COC(F)F)NC(=O)[C@H](COC(F)F)NC(=O)[C@H](COC(F)F)NC(=O)CN1CCOCC1)C(=O)[C@@]1(C)CO1
77.8

Kindly indicate its recorded IC50. Item: CC(C)C[C@H](NC(=O)[C@H](Cc1ccccc1)NC(=O)[C@H](COC(F)F)NC(=O)[C@H](COC(F)F)NC(=O)CN1CCOCC1)C(=O)[C@@]1(C)CO1
50.7

Tell me its IC50 given CC(C)C[C@H](NC(=O)[C@H](COC(F)F)NC(=O)CN1CCOCC1)C(=O)N[C@@H](Cc1ccccc1)C(=O)N[C@@H](Cc1ccccc1)C(=O)[C@@]1(C)CO1 as the entry.
38.2

Tell us which IC50 value is on record for CC(C)C[C@H](NC(=O)[C@H](COC(F)F)NC(=O)CN1CCOCC1)C(=O)N[C@@H](COC(F)F)C(=O)N[C@@H](Cc1ccccc1)C(=O)[C@@]1(C)CO1
45.7

Identify measured IC50 associated with CC(C)C[C@H](NC(=O)[C@H](COC(F)F)NC(=O)CN1CCOCC1)C(=O)N[C@@H](Cc1ccccc1)C(=O)N[C@@H](CC(C)C)C(=O)[C@@]1(C)CO1
46.8

Please give the documented IC50 of CC(C)C[C@H](NC(=O)[C@H](COC(F)F)NC(=O)CN1CCOCC1)C(=O)N[C@@H](COC(F)F)C(=O)N[C@@H](CC(C)C)C(=O)[C@@]1(C)CO1
40.4

###

Recorded remaining activity at 2 mg/kg, one value per entry.
- measured_target: proteasome Chymotrypsin-like (CT-L) activity (Mus musculus, UniProt O09061+O55234)
- Construct: RBCs were lysed with assay lysis buffer and incubated on ice for 30 minutes; from tissue; host or cells: red blood cells of NOD/SCID mice
- procedure_details: Pharmacodynamic proteasome activity in murine red blood cells, CT-L
- Format: in vivo, NOD/SCID mice
- condition_parameters: iv, mice, 2 mg/kg i.v., time 0, read-out: Chymotrypsin-like (CT-L) mean residual activity relative to vehicle treated controls
Unit % implied. Number only.

Before answering, review these 2 worked examples.
{"compound": "CC(C)C[C@H](NC(=O)[C@H](CCc1ccccc1)NC(=O)CN1CCOCC1)C(=O)N[C@@H](Cc1ccccc1)C(=O)N[C@@H](CC(C)C)C(=O)[C@@]1(C)CO1 [Carfilzomib, carfilzomib, reference compound]", "remaining activity at 2 mg/kg (%)": 100}
{"compound": "CC(C)C[C@H](NC(=O)[C@H](COC(F)F)NC(=O)CN1CCOCC1)C(=O)N[C@@H](Cc1ccccc1)C(=O)N[C@@H](CC(C)C)C(=O)[C@@]1(C)CO1 [Example 2]", "remaining activity at 2 mg/kg (%)": 100}

Please give measured remaining activity at 2 mg/kg of the following entry: CC(C)C[C@H](NC(=O)[C@H](COC(F)F)NC(=O)CN1CCOCC1)C(=O)N[C@@H](Cc1ccccc1)C(=O)N[C@@H](Cc1ccccc1)C(=O)[C@@]1(C)CO1 [Example 3]
100
